Data origin: PubChem BioAssay AID1347417

- Measurement protocol: qHTS Primary assay for Inhibitors of Plasmodium falciparum Dd2 growth in vitro; also: nearly all actives have a fitted effect of over 65% in size
- Test conditions: P. falciparum Dd2 growth, SYBR Green, 72 h; series mostly up to 28.9 µM
The campaign covered roughly 120,000 compounds. About 5,300 (4.4%) were called active. Roughly 22% stayed inconclusive and do not appear here. Calls follow the shape of the dose curve; as a rule, active = well fitted inhibition curve with a large enough effect; inconclusive = small, poorly fitted or top-dose-only effect; inactive = no such curve, though single readings can be large or run the other way. What follows is part of a selection rich in actives, with near analogues and random picks from the rest.
Your answer must be one of the following: active, inactive

Study these solved cases before continuing.
CC1=C[C@@H](CNC(=O)NC(C)C)[C@H](C(C)C)C[C@H]1Cc1nnc(-c2ccncc2)o1: inactive
CC(C)c1ccc(NC(=O)c2cc(S(=O)(=O)N3CCc4ccccc4C3)ccc2F)cc1: inactive
O=C(c1ccc(C(F)(F)F)cc1)N1CCc2nc(C3CC3)nc(-c3ccc(Cl)cc3)c2C1: inactive
COC(=O)C1=C(C)N=C2SC=C(CC(=O)NCCC(C)C)N2C1c1ccccc1Cl (stereo not given): inactive
Fc1ccc(CN2CC[C@H](c3nnc(-c4ccccc4F)o3)C2)cc1: inactive

In: Which outcome did this test record for the compound COc1ccc(-c2nc(C(C)C)nc3c2CN(C(=O)c2ccccc2F)CC3)cc1 ?
Out: inactive

In: Which outcome did this test record for the compound Cc1ccc(CNC(=O)N2CCCOCCNC(=O)[C@@H]3CCC[C@@H]32)cc1 ?
Out: inactive

In: Which outcome did this test record for the compound O=C(c1cccc(Cl)c1)N1CCc2nc(C3CC3)nc(-c3ccc(Cl)cc3)c2C1 ?
Out: inactive

In: Which outcome did this test record for the compound CC1=C[C@@H](CNC(C)C)[C@H](C(C)C)C[C@H]1Cc1nnc(-c2ccc(N(C)C)cc2)o1 ?
Out: active

In: Which outcome did this test record for the compound Nc1nc2c(s1)C(c1ccccc1)CC(=O)N2 (stereo not given) ?
Out: inactive

In: Which outcome did this test record for the compound O=C(c1cccc2[nH]ccc12)N1C[C@@H](CO)[C@H](c2ccccn2)C1 ?
Out: inactive

In: Which outcome did this test record for the compound COC[C@@H]1CN(C(=O)Cc2ccc(OC)cc2)C[C@H]1C(N)=O ?
Out: inactive

In: Which outcome did this test record for the compound COCC(=O)N(C1CCOCC1)C1CCN(S(=O)(=O)c2ccccc2C)CC1 ?
Out: inactive

In: Which outcome did this test record for the compound COC(=O)C1=C(C)N=C2SC=C(CC(=O)NCc3ccco3)N2C1c1cccc(F)c1 (stereo not given) ?
Out: inactive

In: Which outcome did this test record for the compound Cc1ccccc1C(=O)N[C@@H]1CN(c2ncccn2)C[C@H]1CO ?
Out: inactive
